test: Drug level in DIO mouse at 5 mg/kg, iv and 20 mg/kg, po after 24 hrs; assay type: ADME, organism-based; conditions: in vivo, read-out: Drug uptake
observation_type: concentration at 24 h (µM)
Enter your answer as a number in µM; do not include the unit.

Requested read-out: concentration at 24 h. Entry: N#Cc1ccc2cc(Br)c(C(F)(F)P(=O)(O)O)cc2c1
9

====

Biological target: UniProt P08575
Sequence (P08575 whole entry): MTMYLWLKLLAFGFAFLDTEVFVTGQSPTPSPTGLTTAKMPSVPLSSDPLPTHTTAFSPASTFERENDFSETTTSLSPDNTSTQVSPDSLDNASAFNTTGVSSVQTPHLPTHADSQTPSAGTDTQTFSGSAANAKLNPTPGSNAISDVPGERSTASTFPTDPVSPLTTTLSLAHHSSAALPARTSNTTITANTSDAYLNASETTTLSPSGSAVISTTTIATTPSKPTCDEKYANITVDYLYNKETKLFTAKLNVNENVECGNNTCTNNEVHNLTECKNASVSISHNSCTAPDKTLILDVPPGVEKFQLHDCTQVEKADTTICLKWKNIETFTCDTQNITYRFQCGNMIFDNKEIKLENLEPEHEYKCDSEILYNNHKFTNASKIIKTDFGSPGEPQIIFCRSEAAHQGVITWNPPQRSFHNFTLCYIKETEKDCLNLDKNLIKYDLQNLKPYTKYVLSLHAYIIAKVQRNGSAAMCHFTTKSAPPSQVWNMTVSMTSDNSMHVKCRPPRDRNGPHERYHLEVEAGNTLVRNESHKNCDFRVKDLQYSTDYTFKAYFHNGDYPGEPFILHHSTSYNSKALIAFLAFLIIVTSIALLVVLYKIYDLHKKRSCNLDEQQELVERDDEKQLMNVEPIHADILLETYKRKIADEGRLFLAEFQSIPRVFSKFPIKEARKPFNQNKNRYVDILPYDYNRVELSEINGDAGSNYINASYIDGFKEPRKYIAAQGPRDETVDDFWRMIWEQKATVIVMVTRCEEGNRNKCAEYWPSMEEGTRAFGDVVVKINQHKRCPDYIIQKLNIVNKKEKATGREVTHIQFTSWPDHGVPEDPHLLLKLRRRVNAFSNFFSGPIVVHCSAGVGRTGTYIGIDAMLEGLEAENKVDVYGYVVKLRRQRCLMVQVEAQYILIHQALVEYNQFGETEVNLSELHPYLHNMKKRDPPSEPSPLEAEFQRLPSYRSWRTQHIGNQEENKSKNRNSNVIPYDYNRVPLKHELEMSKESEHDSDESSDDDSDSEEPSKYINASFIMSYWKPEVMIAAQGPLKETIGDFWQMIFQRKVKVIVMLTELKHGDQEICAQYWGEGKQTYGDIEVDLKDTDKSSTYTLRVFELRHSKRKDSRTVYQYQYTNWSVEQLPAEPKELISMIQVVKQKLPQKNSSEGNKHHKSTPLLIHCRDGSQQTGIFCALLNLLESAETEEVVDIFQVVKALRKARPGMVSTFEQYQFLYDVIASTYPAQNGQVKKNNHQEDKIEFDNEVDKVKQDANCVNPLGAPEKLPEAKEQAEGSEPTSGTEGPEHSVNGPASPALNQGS
pIC50: −log10 of the molar value.
Could you please report measured pIC50 for the items listed next?

Requested read-out: pIC50. Entry: COCc1ccc2cc(Br)c(C(F)(F)P(=O)(O)O)cc2c1
< 4.30

Requested read-out: pIC50. Entry: N#CCc1ccc2cc(Br)c(C(F)(F)P(=O)(O)O)cc2c1
4.57

Requested read-out: pIC50. Entry: NC(=O)c1ccc2cc(Br)c(C(F)(F)P(=O)(O)O)cc2n1
< 4.30

Requested read-out: pIC50. Entry: CNC(=O)c1ccc2cc(Br)c(C(F)(F)P(=O)(O)O)cc2n1
< 4.30

Requested read-out: pIC50. Entry: Cc1ccc2ccc(C(F)(F)P(=O)(O)O)cc2n1
< 4.30
